- target system: human calcium receptor (Homo sapiens, UniProt P41180)
- Sequence (P41180 20-1078): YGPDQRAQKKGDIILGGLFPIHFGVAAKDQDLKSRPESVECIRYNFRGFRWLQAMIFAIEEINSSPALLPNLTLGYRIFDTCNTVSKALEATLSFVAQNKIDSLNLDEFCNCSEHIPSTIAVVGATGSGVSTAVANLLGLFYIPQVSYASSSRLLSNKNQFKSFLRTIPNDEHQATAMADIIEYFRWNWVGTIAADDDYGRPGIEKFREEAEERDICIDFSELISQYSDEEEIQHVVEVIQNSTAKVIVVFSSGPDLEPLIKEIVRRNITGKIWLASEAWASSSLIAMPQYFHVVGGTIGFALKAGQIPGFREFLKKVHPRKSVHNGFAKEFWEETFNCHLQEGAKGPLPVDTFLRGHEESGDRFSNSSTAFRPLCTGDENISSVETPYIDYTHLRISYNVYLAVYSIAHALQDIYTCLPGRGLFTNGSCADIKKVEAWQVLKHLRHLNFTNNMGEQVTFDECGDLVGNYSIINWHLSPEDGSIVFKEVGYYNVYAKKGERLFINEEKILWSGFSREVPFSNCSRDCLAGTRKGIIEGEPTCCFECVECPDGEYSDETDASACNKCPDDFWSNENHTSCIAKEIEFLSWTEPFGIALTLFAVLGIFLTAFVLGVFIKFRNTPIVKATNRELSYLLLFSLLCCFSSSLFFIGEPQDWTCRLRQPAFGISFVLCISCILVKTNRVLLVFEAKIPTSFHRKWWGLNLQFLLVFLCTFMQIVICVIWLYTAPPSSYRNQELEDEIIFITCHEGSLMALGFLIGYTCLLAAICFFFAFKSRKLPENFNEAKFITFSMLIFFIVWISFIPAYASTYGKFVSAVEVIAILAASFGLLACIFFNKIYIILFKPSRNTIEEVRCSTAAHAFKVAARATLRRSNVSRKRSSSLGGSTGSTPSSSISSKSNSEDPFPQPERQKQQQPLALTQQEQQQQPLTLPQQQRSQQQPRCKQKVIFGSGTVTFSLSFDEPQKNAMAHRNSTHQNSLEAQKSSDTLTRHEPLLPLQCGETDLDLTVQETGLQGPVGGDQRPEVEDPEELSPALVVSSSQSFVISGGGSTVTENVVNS
- experiment description: Activity on calcium receptors: fluo-3 fluorescence in HEK293 cells transfected with human calcium receptor gene
- condition summary: HEK293 cells transfected with plasmid pHuPCaR4.0 (human calcium receptor gene), loaded with fluo-3; 1 mM CaCl2, 1 mM MgCl2
EC50 by entry:
Answer format: numeric, µM implied, no suffix.

Worked examples follow.
compound	quantity measured	units of measure	measured result
COc1ccc(CN(Cc2ccc(OC(F)(F)F)cc2)C(=O)CCN[C@H](C)c2cccc3ccccc23)cc1 [Compound K-2311]	EC50	µM	0.053
C[C@@H](NCCCCCSc1ccc(C(F)(F)F)cc1)c1cccc2ccccc12 [Compound K-2076]	EC50	µM	6.2
COc1cccc(C(C)NCCCCCCSc2ccc([N+](=O)[O-])cc2)c1 (centres unmarked) [Compound K-2035]	EC50	µM	0.22
COc1cccc(SCCCCCN[C@H](C)c2cccc3ccccc23)c1 [Compound K-2279]	EC50	µM	0.63
CC(NCCC(=O)N(Cc1cccc(Cl)c1)Cc1cccc(Cl)c1)c1cccc2ccccc12 (centres unmarked) [Compound K-2253]	EC50	µM	0.19

Q: Please indicate EC50 recorded for COc1cccc(C(C)NCCCCCSc2ccc([N+](=O)[O-])cc2)c1 (centres unmarked) [Compound K-2034]
Ans: 0.061

Q: Please indicate EC50 recorded for CC(NCCSc1cccc(C(F)(F)F)c1)c1cccc2ccccc12 (centres unmarked) [Compound K-2275]
Ans: 0.27

Q: Please indicate EC50 recorded for C[C@@H](NCCC(=O)N(Cc1ccc(OC(F)(F)F)cc1)Cc1ccc(OC(F)(F)F)cc1)c1cccc2ccccc12 [Compound K-2257]
Ans: 0.039

====

- target system: human calcium receptor (Homo sapiens)
- experiment description: Activity on calcium receptors: fluo-3 fluorescence in HEK293 cells transfected with human calcium receptor gene
- condition summary: HEK293 cells transfected with plasmid pHuPCaR4.0 (human calcium receptor gene), loaded with fluo-3; 1 mM CaCl2, 1 mM MgCl2
quantity measured: log10(EC50) (log10 of the value in nM)
Recorded EC50 (log10, nM)

Worked examples follow.
compound	target system	log10(EC50)
COc1cccc(C(C)NCCCOc2ccc3c(c2)Cc2ccccc2-3)c1 (stereo not shown) [Compound 59]	human calcium receptor (Homo sapiens)	3.01
C[C@@H](NCCC(=O)N(Cc1ccc(Cl)cc1)Cc1ccc(C(F)(F)F)cc1)c1cccc2ccccc12 [Compound K-2266]	human calcium receptor (Homo sapiens)	1.56
C[C@@H](NCCCCCCSc1ccc(Cl)cc1)c1cccc2ccccc12 [Compound K-2286]	human calcium receptor (Homo sapiens)	2.79
COc1cccc(C(C)NCCCCCSc2nc3ccccc3s2)c1 (stereo not shown) [Compound 38]	human calcium receptor (Homo sapiens)	2.99
COc1cccc([C@@H](C)NCCCOc2ccc(-c3ccccc3)cc2)c1 [Compound 83]	human calcium receptor (Homo sapiens)	3.00
C[C@@H](NCCCCSc1c(F)c(F)c(C(F)(F)F)c(F)c1F)c1cccc2ccccc12 [Compound K-2297]	human calcium receptor (Homo sapiens)	2.36
C[C@@H](NCCC(=O)N(Cc1ccccc1)Cc1ccc2ccccc2c1)c1cccc2ccccc12 [Compound K-2248]	human calcium receptor (Homo sapiens)	1.89
Cc1ccc(SCCCCN[C@H](C)c2cccc3ccccc23)c(C)c1 [Compound K-2302]	human calcium receptor (Homo sapiens)	2.70

Q: Please indicate log10(EC50) recorded for COc1cccc(C(C)NCCSc2ccccc2Br)c1 (stereo not shown) [Compound K-2015]
Ans: 2.69

Q: Please indicate log10(EC50) recorded for C[C@@H](NCCC(=O)N(Cc1ccc(Cl)cc1)Cc1ccc(Cl)c(Cl)c1)c1cccc2ccccc12 [Compound K-2267]
Ans: 1.15
